Molecular target: Nav1.7 (or SCN9A) channel (Homo sapiens)
Experiment: Nav1.7 (hSCN9A) channel block, PatchXpress whole-cell electrophysiology
Settings: PatchXpress platform; HEK cells stably transfected with hSCN9A; estimated IC-50 calculated from single point % inhibition at V1/2; read-out: Nav1.7 EIC50
Experimental: The ability of the compounds of formula (I) to block the Nav1.7 (or SCN9A) channel were measured using the assay described below. Human Embryonic Kidney (HEK) cells were transfected with an hSCN9A construct using lipofectamine reagent (Invitrogen), using standard techniques. […] hSCN9A currents in HEK cells were measured using the whole-cell configuration of the patch-clamp technique (Hamill et al., 1981). […]
Parameter IC50: see the listing below.

Consider the reported IC50 for these molecules:
CS(=O)(=O)NC(=O)c1cc(F)c(COc2cc(C(F)(F)F)nc(C(F)(F)F)c2)cc1F
1840 nM
CS(=O)(=O)NC(=O)c1cc(Cl)c(COc2cnc(OC(F)F)c(Cl)c2)cc1F
62.3 nM
CC(C)C(F)(F)c1ncc(OCc2cc(F)c(C(=O)NS(C)(=O)=O)cc2Cl)cc1Cl
52.7 nM
CS(=O)(=O)NC(=O)c1cc(Cl)c(COc2cnc(OC(C(F)(F)F)C(F)(F)F)c(Cl)c2)cc1F
< 100 nM
CS(=O)(=O)NC(=O)c1ccc(COc2cccc3cnccc23)cc1
> 3000 nM
CC(C)c1ncc2ncc(COc3cc(F)c(C(=O)NS(C)(=O)=O)cc3Cl)cn12
> 3000 nM
CC(Oc1ncc(OCc2cc(F)c(C(=O)NS(C)(=O)=O)cc2Cl)cc1Cl)C(F)(F)F (stereo not shown)
< 100 nM
COc1cc(COc2cnc(OC(C)C)c(Cl)c2)ccc1C(=O)NS(C)(=O)=O
> 3000 nM
CS(=O)(=O)NC(=O)c1ccc(COc2cncc(Cl)c2)cc1
8460 nM

stdin: Return IC50 measured with Nav1.7 (or SCN9A) channel (Homo sapiens) given this molecule: [2H]C([2H])([2H])C(Oc1ncc(OCc2cc(F)c(C(=O)NS(C)(=O)=O)cc2Cl)cc1Cl)(C([2H])([2H])[2H])C([2H])([2H])[2H]
stdout: 11 nM

----------
molecular target: Nav1.7 (or SCN9A) channel (Homo sapiens, UniProt Q15858); assay: Nav1.7 (hSCN9A) channel block, PatchXpress whole-cell electrophysiology; conditions: PatchXpress platform; HEK cells stably transfected with hSCN9A; estimated IC-50 calculated from single point % inhibition at V1/2; read-out: Nav1.7 EIC50
Sequence (Q15858 whole entry): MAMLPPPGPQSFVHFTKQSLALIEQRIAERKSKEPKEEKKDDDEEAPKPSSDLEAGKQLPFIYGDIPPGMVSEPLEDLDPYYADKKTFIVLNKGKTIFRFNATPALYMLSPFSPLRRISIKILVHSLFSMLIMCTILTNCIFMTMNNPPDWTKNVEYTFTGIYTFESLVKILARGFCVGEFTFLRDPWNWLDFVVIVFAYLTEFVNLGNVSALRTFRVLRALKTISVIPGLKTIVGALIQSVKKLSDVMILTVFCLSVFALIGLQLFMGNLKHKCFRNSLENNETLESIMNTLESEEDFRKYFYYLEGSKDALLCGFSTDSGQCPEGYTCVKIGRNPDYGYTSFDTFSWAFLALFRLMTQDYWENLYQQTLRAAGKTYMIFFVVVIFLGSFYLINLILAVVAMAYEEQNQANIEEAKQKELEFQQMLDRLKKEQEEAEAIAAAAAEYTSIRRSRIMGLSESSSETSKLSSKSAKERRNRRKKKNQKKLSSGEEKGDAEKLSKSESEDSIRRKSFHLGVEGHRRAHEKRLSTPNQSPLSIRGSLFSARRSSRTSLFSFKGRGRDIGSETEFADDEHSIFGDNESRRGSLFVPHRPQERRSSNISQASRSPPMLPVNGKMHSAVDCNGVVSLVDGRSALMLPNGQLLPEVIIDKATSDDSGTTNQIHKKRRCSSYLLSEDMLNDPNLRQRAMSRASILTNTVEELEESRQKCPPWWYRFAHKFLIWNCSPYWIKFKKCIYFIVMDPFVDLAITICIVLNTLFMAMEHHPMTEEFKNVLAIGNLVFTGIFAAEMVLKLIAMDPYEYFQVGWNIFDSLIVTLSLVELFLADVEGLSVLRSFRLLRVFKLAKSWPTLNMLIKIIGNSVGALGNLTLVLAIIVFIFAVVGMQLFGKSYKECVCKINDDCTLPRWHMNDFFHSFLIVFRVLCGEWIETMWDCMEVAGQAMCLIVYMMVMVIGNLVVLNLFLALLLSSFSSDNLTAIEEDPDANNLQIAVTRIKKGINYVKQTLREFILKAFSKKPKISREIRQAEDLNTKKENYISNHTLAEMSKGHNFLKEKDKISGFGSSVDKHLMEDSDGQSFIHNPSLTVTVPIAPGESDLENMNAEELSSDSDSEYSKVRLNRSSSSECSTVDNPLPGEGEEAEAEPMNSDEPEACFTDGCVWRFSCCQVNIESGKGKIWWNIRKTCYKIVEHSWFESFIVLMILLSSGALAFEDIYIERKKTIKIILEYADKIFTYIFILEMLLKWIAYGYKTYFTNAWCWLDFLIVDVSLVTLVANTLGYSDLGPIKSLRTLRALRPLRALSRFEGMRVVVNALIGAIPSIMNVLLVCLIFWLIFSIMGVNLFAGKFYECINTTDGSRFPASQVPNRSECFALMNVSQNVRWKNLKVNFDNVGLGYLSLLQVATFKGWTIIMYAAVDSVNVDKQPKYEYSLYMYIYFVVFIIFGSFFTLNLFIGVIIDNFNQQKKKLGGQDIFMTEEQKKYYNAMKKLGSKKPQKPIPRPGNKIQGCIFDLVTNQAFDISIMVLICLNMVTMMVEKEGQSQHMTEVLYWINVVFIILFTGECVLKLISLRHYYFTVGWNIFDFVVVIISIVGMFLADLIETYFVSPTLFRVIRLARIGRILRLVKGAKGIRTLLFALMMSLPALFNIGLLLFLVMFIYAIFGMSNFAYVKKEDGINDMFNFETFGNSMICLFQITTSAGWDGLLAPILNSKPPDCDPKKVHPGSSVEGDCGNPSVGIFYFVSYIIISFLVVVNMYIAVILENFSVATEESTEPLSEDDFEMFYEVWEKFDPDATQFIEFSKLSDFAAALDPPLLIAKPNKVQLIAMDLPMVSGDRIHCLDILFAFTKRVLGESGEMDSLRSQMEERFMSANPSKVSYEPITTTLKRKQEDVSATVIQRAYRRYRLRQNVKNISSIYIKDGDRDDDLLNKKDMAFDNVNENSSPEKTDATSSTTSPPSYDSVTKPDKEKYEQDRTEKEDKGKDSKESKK
Parameter pIC50: see the listing below.
Keep in mind that pIC50 stands for -log10 of concentration in molar terms.

Consider the reported pIC50 for these compounds:
CS(=O)(=O)NC(=O)c1cc(Cl)c(COc2cnc(C3CC3)c(C3CC3)c2)cc1F [Example 57]
6.82
COc1ncc(OCc2ccc(C(=O)NS(C)(=O)=O)cc2)cc1Cl [Example 6]
5.45
[2H]C([2H])([2H])C([2H])(Oc1ncc(OCc2cc(F)c(C(=O)NS(C)(=O)=O)cc2Cl)cc1Cl)C([2H])([2H])[2H] [Example 39]
7.40
CS(=O)(=O)NC(=O)c1cc(F)c(COc2cnc(OCC(F)(F)C(F)(F)F)c(Cl)c2)cc1F [Example 25]
7.73
CS(=O)(=O)NC(=O)c1cc(Cl)c(COc2cnc(OCC(F)(F)C(F)(F)F)c(Cl)c2)cc1F [Example 46]
7.74

stdin: Value lookup for pIC50; key = CC(C)COc1ncc(OCc2cc(F)c(C(=O)NS(C)(=O)=O)cc2F)cc1Cl [Example 1]
stdout: 7.86
